# assay_notes: Plasma stability in human plasma assessed as degraded peptide at 1 uM measured after 2 hrs by UPLC-MS/MS analysis
# Format: ADME, cell-free
readout_kind: metabolised at 2 h, 1 µM (%)
Expressed in %, but write only the number.

Asked: # lookup: metabolised at 2 h, 1 µM of H-TKSYWKALG-NH2
Given back: 99

----------
# assay_notes: Apparent permeability of the compound in apical to basolateral side in rat blood-brain barrier model at 10 uM
# Type: ADME, tissue-based
# condition: not told
Starred links: 1 amine or outer side, 2 acyl side, 3 side chain; linkers in the order of their positions; H or OH if unused. Non-standard residues stand in square brackets, D forms with d. Residues, ends and D or L forms follow the SMILES beside them. *: point of attachment. X2 = CC(C)CN(NC(=O)N(C)N[*:1])C(=O)[*:2]; X1 = C[C@H](O)CN(N)C(=O)NN(CCCCN)C(=O)*
readout_kind: Papp A→B at 10 µM (×10⁻⁶ cm/s)
The response must be a number in ×10⁻⁶ cm/s with no trailing unit.

Asked: Please look up its Papp A→B at 10 µM: CC(C)CN(NC(=O)N(C)NC(=O)[C@H](CCCCN)NC(=O)[C@H](Cc1c[nH]c2ccccc12)NC(=O)[C@H](Cc1ccc(O)cc1)NC(=O)[C@H](CO)NC(=O)N(CCCCN)NC(=O)N(N)C[C@H](C)O)C(=O)NCC(N)=O (X1-SYWK[X2]G-NH2)
Given back: 0.677
